test system: Puccinia recondita f. sp. tritici; assay: Test H: wheat leaf rust, curative spray on inoculated wheat seedlings, visual disease rating; conditions: wheat leaf rust, curative; 100 = 100% disease control, 0 = no control relative to controls
attribute.measured: Test H rating (% disease control) (%)
Only the number, expressed in %, is required.

Query (compound): "COc1cc(F)c(-c2c(C)nn(C)c2Oc2ccc(Br)c(C#N)c2)c(F)c1" ; field requested: Test H rating (% disease control) 0

Same for "Cc1nn(C)c(Oc2c(F)cc(C#N)cc2F)c1-c1ccc(F)cc1F" 0

Another compound to check: "COc1ccc(Nc2c(-c3ccc(F)cc3F)c(C)nn2C)c(F)c1" 0

---

tested on: Erysiphe graminis f sp. tritici; experiment: Test J: wheat powdery mildew, preventive spray on wheat seedlings, visual disease rating; details: wheat powdery mildew, sprayed the day before inoculation; 100 = 100% disease control, 0 = no disease control relative to controls
attribute.measured: Test J disease control rating (%)
Response body: numeric value in %, unit text excluded.

Example entries begin here.
cpd_smiles=Cc1nn(C)c(Oc2c(F)cc(C#N)cc2F)c1-c1ccccc1F attribute_measured="Test J disease control rating" measured_number=99
cpd_smiles=Cc1nn(C)c(Nc2ccc(F)cc2F)c1-c1ccc(C#N)cc1Cl attribute_measured="Test J disease control rating" measured_number=97
cpd_smiles=Cc1nn(C)c(Nc2ccc(Cl)cc2Cl)c1-c1c(Cl)cccc1Cl attribute_measured="Test J disease control rating" measured_number=99

Could you now consider this next molecule?
Consider the molecule shown here: "Cc1nn(C)c(N(CC#N)c2c(F)cc(F)cc2F)c1-c1ccc(F)cc1Cl" What is its recorded Test J disease control rating? 94

---

test system: Botrytis cinerea; assay: Test B: tomato Botrytis, preventive spray on tomato seedlings, visual disease rating; details: Botrytis cinerea, in Solanum lycopersicum, 120 h, read-out: Test B rating (% disease control)
attribute.measured: pest or weed control at 200 µg/mL (%)
// note: answer is a bare numeric in %

Some molecules with known pest or weed control at 200 µg/mL results, for comparison:
cpd_smiles=Cc1nn(C)c(Nc2c(F)cc(C#N)cc2F)c1-c1ccc(F)cc1Cl attribute_measured="pest or weed control at 200 µg/mL" unit_text=% measured_number=100
cpd_smiles=COc1cc(F)c(-c2c(C)nn(C)c2Nc2ccc(F)cc2F)c(F)c1 attribute_measured="pest or weed control at 200 µg/mL" unit_text=% measured_number=98
cpd_smiles=Cc1nn(C)c(Oc2ccc(C#N)cc2F)c1-c1ccc(F)cc1Cl attribute_measured="pest or weed control at 200 µg/mL" unit_text=% measured_number=100
cpd_smiles=COc1cc(F)c(-c2c(C)nn(C)c2Oc2c(F)cc(Cl)cc2F)c(F)c1 attribute_measured="pest or weed control at 200 µg/mL" unit_text=% measured_number=98
cpd_smiles=Cc1nn(C)c(Nc2ccc(F)cc2F)c1-c1ccc(Cl)cc1Cl attribute_measured="pest or weed control at 200 µg/mL" unit_text=% measured_number=100
cpd_smiles=COc1cc(F)c(Nc2c(-c3ccc(F)cc3Cl)c(C)nn2C)c(F)c1 attribute_measured="pest or weed control at 200 µg/mL" unit_text=% measured_number=100
cpd_smiles=Cc1nn(C)c(Oc2ccc(C#N)cc2Cl)c1-c1ccc(F)cc1Cl attribute_measured="pest or weed control at 200 µg/mL" unit_text=% measured_number=100
cpd_smiles=Cc1nn(C)c(Oc2c(F)cc([N+](=O)[O-])cc2F)c1-c1c(F)cc(F)cc1F attribute_measured="pest or weed control at 200 µg/mL" unit_text=% measured_number=96

# evaluate next
Fill blank: measured pest or weed control at 200 µg/mL of the molecule "Cc1nn(C)c(Nc2c(F)cc(F)cc2Cl)c1-c1ccc(F)cc1Br" is ____. 100
